Tested on: Rattus norvegicus
test-details: Antiestrogenic activity in Sprague-Dawley rat assessed as inhibition of uterine weight gain administered as po daily once for 3 days relative to 17alpha-ethynylestradiol
Format: functional
Classification field: enter 1 for inhibition (INH) values not below 10%, -1 for values below it.

CCSC(CC(=O)c1ccc(OCCN2CCCC2)cc1)c1ccccc1 (stereo not drawn)
-1
O=C(CC(Sc1ccc(O)cc1)c1cccc(O)c1)c1ccc(OCCN2CCCCC2)cc1 (stereo not drawn)
1
O=C(CC(Sc1ccccc1)c1ccccc1)c1ccccc1 (stereo not drawn)
1
CCSC(CC(=O)c1ccc(OCCN2CCCCC2)cc1)c1ccccc1 (stereo not drawn)
-1
COc1ccc(C(=O)CC(Sc2ccccc2)c2ccc(OC)cc2)cc1 (stereo not drawn)
1
O=C(CC(Sc1ccc(O)cc1)c1ccccc1)c1ccc(OCCN2CCCCC2)cc1 (stereo not drawn)
1
O=C(CC(Sc1ccc(O)cc1)c1ccccc1)c1ccc(OCCN2CCCC2)cc1 (stereo not drawn)
1
CCSC(CC(=O)c1ccc(OCCN(C)C)cc1)c1ccccc1 (stereo not drawn)
-1
COc1ccc(C(CC(=O)c2ccccc2)Sc2ccccc2)cc1 (stereo not drawn)
1
CN(C)CCOc1ccc(C(=O)CC(Sc2ccccc2)c2ccccc2)cc1 (stereo not drawn)
1
O=C(CC(Sc1ccc(O)cc1)c1ccc(O)cc1)c1ccc(OCCN2CCCC2)cc1 (stereo not drawn)
1
Cc1ccc(SC(CC(=O)c2ccc(OCCN(C)C)cc2)c2ccccc2)cc1 (stereo not drawn)
-1
CC/C(=C(\c1ccccc1)c1ccc(OCCN(C)C)cc1)c1ccccc1
1
